Parameter: emission maximum. Scope: all listed entries.
TEST METHOD NOTES: solvent given as SMILES
RUN PARAMETERS: in C1CCOC1
Respond numerically; units are nm and should not be typed.

In the examples that follow, each entry is paired with its recorded emission maximum.
# COMPOUND, OUTCOME MEASURE, DISPLAY UNIT, REPORTED
data = [
    ("CCn1c2ccccc2c2cc(/C=C/c3cc(/C=C/c4ccc5c(c4)c4ccccc4n5CC)[n+](CCCS(=O)(=O)[O-])c(/C=C/c4ccc5c(c4)c4ccccc4n5CC)c3)ccc21", "emission maximum", "nm", 605),
    ("Cc1cc(C)c([B-]2(c3c(C)cc(C)cc3C)[O+]=P(c3ccccc3)(c3ccccc3)c3cc(-c4ccc(C(C)(C)C)cc4)sc3-c3sc(-c4ccc(C(C)(C)C)cc4)cc32)c(C)c1", "emission maximum", "nm", 498),
    ("Cc1cc(C)c(B(c2ccc(-c3nc4c5ccccc5c5ccccc5c4[nH]3)cc2)c2c(C)cc(C)cc2C)c(C)c1", "emission maximum", "nm", 456),
]

Asked: Requested field: emission maximum. Item: `F[B-]1(F)n2c(/C=C/c3ccc(C(=C(c4ccccc4)c4ccccc4)c4ccccc4)cc3)ccc2C(c2ccccc2)=C2C=CC(/C=C/c3ccc(C(=C(c4ccccc4)c4ccccc4)c4ccccc4)cc3)=[N+]21`
Given back: 690

Asked: What about this compound? `OB(O)c1ccc(-c2ccc(N(c3ccccc3)c3ccccc3)cc2)cc1`
Given back: 410

Asked: Follow-up entry: `C(=C\c1cnc2ccccc2n1)/c1ccc(N(c2ccccc2)c2ccccc2)cc1`
Given back: 535

Asked: Same question, `C(=C\c1ccc(N(c2ccc(/C=C/c3ccc(N(c4ccccc4)c4ccccc4)cc3)cc2)c2ccc(-c3nc4ccccc4nc3-c3ccc(N(c4ccc(/C=C/c5ccc(N(c6ccccc6)c6ccccc6)cc5)cc4)c4ccc(/C=C/c5ccc(N(c6ccccc6)c6ccccc6)cc5)cc4)cc3)cc2)cc1)/c1ccc(N(c2ccccc2)c2ccccc2)cc1` this time
Given back: 532

Asked: // repeat for `C#Cn1c(-c2cc(-c3nc4ccccc4n3C#C)cc(-c3nc4ccccc4n3C#C)c2)nc2ccccc21` and report
Given back: 386.5

Asked: Subsequent entry: `C(=C(c1ccccc1)c1ccccc1)c1ccc(-c2cc(-c3ccc(C=C(c4ccccc4)c4ccccc4)cc3)cc(-c3ccc(C=C(c4ccccc4)c4ccccc4)cc3)c2)cc1`
Given back: 446

Asked: Queued: `N#C/C(=C\c1ccc(C=C(c2ccccc2)c2ccccc2)cc1)c1ccc([N+](=O)[O-])cc1`
Given back: 552

Asked: Follow-up item: `CCn1c2sccc2c2c3nsnc3c3c4ccsc4n(CC)c3c21`
Given back: 521

Asked: Subsequent entry: `c1ccc(-c2nn(-c3ccccc3)c3nc4ccccc4cc23)cc1`
Given back: 467.73

Asked: What would you report for `CC(C)(C)c1ccc(C2=C(c3ccc(N4c5ccccc5C(C)(C)c5ccccc54)cc3)S(=O)(=O)c3c2sc(-c2ccc(N4c5ccccc5C(C)(C)c5ccccc54)cc2)c3-c2ccc(C(C)(C)C)cc2)cc1` ?
Given back: 581
